biological target: p38a activated, mitogen-activated protein kinase-activated protein kinase 2 (MAPKAP-K2 or MK2) enzyme (Homo sapiens, UniProt P49137); test: MK2 OMNIA biochemical assay (AssayQuant continuous-read kinase assay); settings: [MK-2]=0.05 nM, [ATP]=100 μM, [AQT0425]=10 μM
Sequence (P49137 whole entry): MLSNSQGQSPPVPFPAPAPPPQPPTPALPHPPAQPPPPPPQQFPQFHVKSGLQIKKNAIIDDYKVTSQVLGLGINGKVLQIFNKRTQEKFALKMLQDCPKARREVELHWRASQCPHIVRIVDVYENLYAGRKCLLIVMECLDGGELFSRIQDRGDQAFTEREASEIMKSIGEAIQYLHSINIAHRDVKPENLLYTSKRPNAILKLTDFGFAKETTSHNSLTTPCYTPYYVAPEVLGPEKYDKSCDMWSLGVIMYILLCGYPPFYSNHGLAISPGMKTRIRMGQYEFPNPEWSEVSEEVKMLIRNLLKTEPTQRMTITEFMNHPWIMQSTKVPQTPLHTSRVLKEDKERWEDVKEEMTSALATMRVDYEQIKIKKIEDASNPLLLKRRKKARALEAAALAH
In this section we review reported IC50 values for a set of compounds.

C[C@@H]1COc2c(sc3ccc4nc(-c5cccc(N6CCN(CCN7CCN(c8ccc9c(C%10CCC(=O)NC%10=O)nn(C)c9c8)CC7)CC6)c5)ccc4c23)C(=O)N1 (some centres unmarked) [Ex 17]; < 150 nM
C[C@@H]1CNc2c(sc3ccc4nc(-c5ccc(C(=O)N[C@H]6C[C@H](CN7CCN(c8ccc9c(C%10CCC(=O)NC%10=O)nn(C)c9c8)CC7)C6)cc5F)ccc4c23)C(=O)N1 (some centres unmarked) [Ex 3]; < 150 nM
C[C@@H]1CNc2c(sc3ccc4nc(-c5ccc(N6CC7CC(C6)N7CCN6CCN(c7ccc(C8CCC(=O)NC8=O)cc7)CC6)cc5)ccc4c23)C(=O)N1 (some centres unmarked) [Ex 24]; < 150 nM
C[C@@H]1CNc2c(sc3ccc4nc(-c5ccc(C(=O)NC6CCN(c7ccc8c(C9CCC(=O)NC9=O)nn(C)c8c7)CC6)cc5F)ccc4c23)C(=O)N1 (some centres unmarked) [Ex 1]; < 150 nM

Qu. Could you tell me which IC50 is on file for C[C@@H]1CNc2c(sc3ccc4nc(-c5ccc(C(=O)N[C@H]6CC[C@H](CCN7CCN(c8ccc(C9CCC(=O)NC9=O)cc8)CC7)CC6)cc5F)ccc4c23)C(=O)N1 (some centres unmarked) [Ex 10] ?
Ans. 151 to 500 nM

Qu. // IC50 lookup, key: C[C@@H]1CNc2c(sc3ccc4nc(-c5ccc(C6CCN(CCN7CCN(c8ccc(C9CCC(=O)NC9=O)cc8)CC7)CC6)nc5)ccc4c23)C(=O)N1 (some centres unmarked) [Ex 34]
Ans. 151 to 500 nM

Qu. Please report the recorded IC50 for C[C@@H]1CNc2c(sc3ccc4nc(-c5cnc(C6CCN(CCN7CCN(c8ccc(C9CCC(=O)NC9=O)cc8)CC7)CC6)nc5)ccc4c23)C(=O)N1 (some centres unmarked) [Ex 36] .
Ans. 151 to 500 nM
